All figures here come from patent US4654373A.

PROCEDURE_SUMMARY: Distribution after parenteral (intramuscular) administration (HPLC)
Format: in vivo, rat
MEASUREMENT_PARAMETERS: rat, im; liver, intramuscular 20 mg/kg, 60 min.; read-out: Mean tissutal concentration

{"COMPOUND": "COC1=C(OC)C(=O)C(CC=C(C)CCC=C(C)CCC=C(C)CCC=C(C)CCC=C(C)CCC=C(C)CCC=C(C)CCC=C(C)CCC=C(C)CCC=C(C)C)=C(C)C1=O [Coenzyme Q10]", "concentration at 1 h [ng/g]": 12600}

----------
PROCEDURE_SUMMARY: Distribution after parenteral (intramuscular) administration (HPLC)
Format: in vivo, rat
MEASUREMENT_PARAMETERS: rat, im; plasma, intramuscular 20 mg/kg, 60 min.; read-out: Mean plasmatic concentration
MEASURED_ENDPOINT: concentration at 1 h (ng/mL)

{"SMILES_STR": "COC1=C(OC)C(=O)C(CC=C(C)CCC=C(C)CCC=C(C)CCC=C(C)CCC=C(C)CCC=C(C)CCC=C(C)CCC=C(C)CCC=C(C)CCC=C(C)C)=C(C)C1=O", "MEASURED_ENDPOINT": "concentration at 1 h", "TEST_RESULT": 940}
